# assay_protocol: solvent given as SMILES
# condition: in N#Cc1ccccc1
Binary call on solvation free energy, 298 K: fulfilled from -3 kcal/mol upward, not fulfilled beneath that.

[[record]]
smiles_code = "OCc1ccccc1"
cat = "not fulfilled"

[[record]]
smiles_code = "CCC"
cat = "fulfilled"

[[record]]
smiles_code = "CCC1CCCCC1"
cat = "not fulfilled"

[[record]]
smiles_code = "Ic1ccccc1"
cat = "not fulfilled"

[[record]]
smiles_code = "CCN(CC)CC"
cat = "not fulfilled"

[[record]]
smiles_code = "CCC#N"
cat = "not fulfilled"

[[record]]
smiles_code = "CCCl"
cat = "fulfilled"

[[record]]
smiles_code = "C=CCCCC"
cat = "not fulfilled"

[[record]]
smiles_code = "CC(C)(C)Br"
cat = "not fulfilled"

[[record]]
smiles_code = "CCCC"
cat = "fulfilled"


---

# assay_protocol: solvent given as SMILES
# condition: in OC1CCCCC1
reported_metric: solvation free energy, 298 K

[[record]]
smiles_code = "CCCC"
measured_value = "-7.53 kJ/mol"

[[record]]
smiles_code = "CC1CCCC1"
measured_value = "-14.4 kJ/mol"

[[record]]
smiles_code = "CCC"
measured_value = "-4.6 kJ/mol"

[[record]]
smiles_code = "CC(C)C"
measured_value = "-6.49 kJ/mol"


---

The following molecules are listed with their measured solvation free energy, 298 K values.
# assay_protocol: solvent given as SMILES
# condition: in CCCCCCCCCCO
reported_metric: solvation free energy, 298 K (kcal/mol)

[[record]]
molecule = "O=C(O)c1ccccc1"
measured_value = -9.21

[[record]]
molecule = "CCCCCCCCCCCCCCO"
measured_value = -12.1

[[record]]
molecule = "Cc1cccc(C(=O)O)c1"
measured_value = -9.65

[[record]]
molecule = "CCCCBr"
measured_value = -4.19

[[record]]
molecule = "c1ccc2c(c1)Cc1ccccc1-2"
measured_value = -9.33

[[record]]
molecule = "CC(C)CCO"
measured_value = -6.18

[[record]]
molecule = "CCCCCCCCCCCCCCCCO"
measured_value = -13.4

[[record]]
molecule = "O=C(c1ccccc1)C(O)c1ccccc1 (stereo unspecified)"
measured_value = -14.5

[[record]]
molecule = "Cc1c(C(=O)O)cc([N+](=O)[O-])cc1[N+](=O)[O-]"
measured_value = -15.3

[[record]]
molecule = "COc1ccc2cc(C(C)C(=O)O)ccc2c1 (stereo unspecified)"
measured_value = -16.2

[[record]]
molecule = "CC(C)O"
measured_value = -4.49

[[record]]
molecule = "COC(C)(C)C"
measured_value = -3.73

[[record]]
molecule = "O"
measured_value = -3.98

[[record]]
molecule = "CCCCCCCCCCCCCCCCCCCCO"
measured_value = -16.4

[[record]]
molecule = "[HH]"
measured_value = 1.83

[[record]]
molecule = "OC1CCCCC1"
measured_value = -7.49

[[record]]
molecule = "OCCCl"
measured_value = -5.73

[[record]]
molecule = "CCCCCl"
measured_value = -3.67

[[record]]
molecule = "O=C1c2ccccc2-c2ccccc21"
measured_value = -10.6

[[record]]
molecule = "C(=Cc1ccccc1)c1ccccc1"
measured_value = -10.2

[[record]]
molecule = "COc1ccccc1C(=O)O"
measured_value = -10.5


---

# assay_protocol: solvent given as SMILES
# condition: in COCCOCCOCCOC
reported_metric: solvation free energy, 298 K (kcal/mol)

[[record]]
smiles_code = "CCCC"
measured_value = -1.64

[[record]]
smiles_code = "C=CC=C"
measured_value = -2.05

[[record]]
smiles_code = "CCC"
measured_value = -0.95

[[record]]
smiles_code = "CC(C)C"
measured_value = -1.18

